- TARGET: thrombin (Homo sapiens, UniProt P00734)
- ASSAY_NAME: In vitro antiprotease activity
- Format: biochemical
OBSERVABLE: IC50 (µM)
API: value field is a number in µM; no unit string.

What value of IC50 has been reported for the following compound? COc1cc(-n2c(C)nc3ccccc3c2=O)cc(OC)c1OC [Compound 5a] 67.4

* * *

- TARGET: Apis mellifera bee venom (AmPLA2) (Apis mellifera, UniProt P00630)
- Sequence (P00630 34-167 limits assumed): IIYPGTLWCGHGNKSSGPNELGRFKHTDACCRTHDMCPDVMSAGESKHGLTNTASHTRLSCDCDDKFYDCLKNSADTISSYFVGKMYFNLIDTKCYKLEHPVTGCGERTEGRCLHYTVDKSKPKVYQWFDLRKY
- ASSAY_NAME: biochemical
# note: exactly 30 µM is not below, so it is Not met; use Met for IC50 strictly under it

Hi there! Is IC50 for "Cc1nc2ccc(Br)cc2c(=O)n1/N=C/c1ccc(C#N)cc1" below 30 µM, do you know? Not met

Try "Cc1nc2ccccc2c(=O)n1/N=C/c1ccc(-c2ccccc2)cc1" next. Met

Try "Cc1nc2ccc(Br)cc2c(=O)n1/N=C/c1ccc2ccccc2c1" next. Met

Try "Cc1nc2ccccc2c(=O)n1/N=C/c1ccc(-c2ccccn2)cc1" next. Met

Try "Cc1nc2ccccc2c(=O)n1/N=C/c1ccc(C#N)cc1" next. Not met

Try Cc1ccc2nc(SCc3ccc(Cl)cc3)n(-c3ccccc3)c(=O)c2c1 [Compound 15b] next. Not met

Try Cc1cccc(C)c1NC(=O)CSc1nc2ccccc2c(=O)n1-c1ccccc1 [Compound 15c] next. Not met

Try "COc1cc(-n2c(C)nc3ccc(F)cc3c2=O)cc(OC)c1OC" next. Met

Try "COc1cccc(/C=N/n2c(C)nc3ccccc3c2=O)c1[N+](=O)[O-]" next. Met

* * *

- TARGET: human group V (hG-V) sPLA2 (Homo sapiens)
- Sequence (P39877 21-138): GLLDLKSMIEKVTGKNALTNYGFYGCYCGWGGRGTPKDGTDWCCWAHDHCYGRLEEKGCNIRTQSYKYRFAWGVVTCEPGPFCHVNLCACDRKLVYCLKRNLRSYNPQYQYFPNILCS
- ASSAY_NAME: In vitro antiphospholipase activity
- Format: biochemical
- CONDITION_SET: 20 min preincubation, lecithin substrate, pH 7.6; read-out: mean IC50 against hG-V (converted)
Answer each item with its documented IC50.
API: value field is a number in µM; no unit string.

Which measured IC50 belongs to "Cc1nc2ccccc2c(=O)n1/N=C/c1ccc2ccccc2c1" , tested on human group V (hG-V) sPLA2 (Homo sapiens)? 121

Try Cc1cccc(NC(=O)CSc2nc3ccccc3c(=O)n2-c2ccccc2)c1C [Compound 15e] next. 32.2

Try O=c1c2ccccc2nc(SCc2ccc(Cl)cc2)n1-c1ccccc1 [Compound 15a] next. 27.7

Try Cc1cccc(C)c1NC(=O)CSc1nc2ccccc2c(=O)n1-c1ccccc1 [Compound 15c] next. 56.6

Try "Cc1nc2ccc(Br)cc2c(=O)n1/N=C/c1ccc(C#N)cc1" next. 92.6

Try "COc1cccc(/C=N/n2c(C)nc3ccc(Br)cc3c2=O)c1[N+](=O)[O-]" next. 37.7

Try "COc1cccc(/C=N/n2c(C)nc3ccccc3c2=O)c1[N+](=O)[O-]" next. 70.2

Try Cc1ccc2nc(SCC(=O)Nc3c(C)cccc3C)n(-c3ccccc3)c(=O)c2c1 [Compound 15d] next. 24.4

Try Cc1ccc2nc(SCC(=O)Nc3cccc(C)c3C)n(-c3ccccc3)c(=O)c2c1 [Compound 15f] next. 70.1

* * *

- TARGET: UniProtKB P53341
- Sequence (P53341 whole entry): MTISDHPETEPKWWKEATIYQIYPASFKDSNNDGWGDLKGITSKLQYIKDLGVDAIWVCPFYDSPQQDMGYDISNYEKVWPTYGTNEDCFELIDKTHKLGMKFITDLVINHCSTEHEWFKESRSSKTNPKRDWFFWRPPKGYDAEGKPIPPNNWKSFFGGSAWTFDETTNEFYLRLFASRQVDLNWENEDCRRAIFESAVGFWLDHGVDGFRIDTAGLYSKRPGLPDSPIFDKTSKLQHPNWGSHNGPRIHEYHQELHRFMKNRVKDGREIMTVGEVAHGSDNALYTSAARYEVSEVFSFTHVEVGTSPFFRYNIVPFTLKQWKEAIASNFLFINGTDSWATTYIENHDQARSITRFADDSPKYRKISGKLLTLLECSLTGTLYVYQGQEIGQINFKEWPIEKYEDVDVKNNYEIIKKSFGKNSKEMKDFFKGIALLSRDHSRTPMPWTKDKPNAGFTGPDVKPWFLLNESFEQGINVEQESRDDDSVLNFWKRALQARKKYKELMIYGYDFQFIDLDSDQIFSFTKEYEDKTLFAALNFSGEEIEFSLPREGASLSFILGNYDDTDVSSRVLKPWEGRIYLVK
OBSERVABLE: IC50
The answer consists of two parts: a number and, after it, its unit.

What value of IC50 has been reported for the following compound? "COc1cc(-n2c(C)nc3ccccc3c2=O)cc(OC)c1OC" 64.3 µM

* * *

- TARGET: trypsin (Bos taurus)
- Construct: gene PRSS1
- Sequence (P00760 24-246): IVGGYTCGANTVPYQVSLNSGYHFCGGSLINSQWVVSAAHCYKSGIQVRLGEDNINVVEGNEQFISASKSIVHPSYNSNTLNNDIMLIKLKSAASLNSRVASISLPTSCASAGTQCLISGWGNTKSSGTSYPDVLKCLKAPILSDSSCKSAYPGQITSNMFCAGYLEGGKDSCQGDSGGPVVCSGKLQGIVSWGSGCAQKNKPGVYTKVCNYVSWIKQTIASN
- ASSAY_NAME: In vitro antiprotease activity
- Assay type: biochemical
- CONDITION_SET: 15 min preincubation; read-out: mean IC50 against Trypsin (converted)
Answer each item with its documented IC50.
API: value field is a number in µM; no unit string.

What value of IC50 has been reported for the following compound? COc1cccc(/C=N/n2c(C)nc3ccc(Br)cc3c2=O)c1[N+](=O)[O-] [Compound 8f] 74.3

Try Cc1nc2ccc(Br)cc2c(=O)n1/N=C/c1ccc(C#N)cc1 [Compound 8h] next. 91.2

Try Cc1ccc2nc(SCC(=O)Nc3cccc(C)c3C)n(-c3ccccc3)c(=O)c2c1 [Compound 15f] next. 39.6

Try Cc1ccc2nc(SCC(=O)Nc3c(C)cccc3C)n(-c3ccccc3)c(=O)c2c1 [Compound 15d] next. 32.6

* * *

- TARGET: UniProt P07858
- ASSAY_NAME: In vitro antiprotease activity
- Type: biochemical
OBSERVABLE: IC50 (µM)
API: value field is a number in µM; no unit string.

What value of IC50 has been reported for the following molecule? COc1cc(-n2c(C)nc3ccccc3c2=O)cc(OC)c1OC [Compound 5a] 25.3

* * *

- TARGET: human group X (hG-X) sPLA2 (Homo sapiens)
- Sequence (O15496 43-165): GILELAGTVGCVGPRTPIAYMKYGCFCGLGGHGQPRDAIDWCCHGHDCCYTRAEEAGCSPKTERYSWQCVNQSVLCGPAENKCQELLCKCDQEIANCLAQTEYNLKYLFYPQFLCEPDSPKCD
- ASSAY_NAME: In vitro antiphospholipase activity
- Type: biochemical
- CONDITION_SET: 20 min preincubation, lecithin substrate, pH 7.6; read-out: mean IC50 against hG-X (converted)
OBSERVABLE: IC50 (µM)
API: value field is a number in µM; no unit string.

What value of IC50 has been reported for the following compound? Cc1ccc2nc(SCC(=O)Nc3cccc(C)c3C)n(-c3ccccc3)c(=O)c2c1 [Compound 15f] 51.2

Try "Cc1nc2ccccc2c(=O)n1/N=C/c1ccc(-c2ccccn2)cc1" next. 69.8

Try Cc1cccc(C)c1NC(=O)CSc1nc2ccccc2c(=O)n1-c1ccccc1 [Compound 15c] next. 102

Try "Cc1nc2ccc(Br)cc2c(=O)n1/N=C/c1ccc2ccccc2c1" next. 33.1

Try "COc1cc(-n2c(C)nc3ccc(Cl)cc3c2=O)cc(OC)c1OC" next. 26.3

* * *

- TARGET: human group X (hG-X) sPLA2 (Homo sapiens)
- Sequence (O15496 43-165): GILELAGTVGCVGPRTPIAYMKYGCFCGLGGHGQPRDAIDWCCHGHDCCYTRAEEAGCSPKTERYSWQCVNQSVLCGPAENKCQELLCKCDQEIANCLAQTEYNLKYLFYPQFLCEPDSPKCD
- ASSAY_NAME: In vitro antiphospholipase activity
- Type: biochemical
- CONDITION_SET: 20 min preincubation, lecithin substrate, pH 7.6; read-out: mean IC50 against hG-X (converted)
# note: exactly 50 µM is not below, so it is condition not met; use condition met for IC50 strictly under it

Hi there! Is IC50 for O=c1c2ccccc2nc(SCc2ccc(Cl)cc2)n1-c1ccccc1 [Compound 15a] below 50 µM, do you know? condition met

Try Cc1nc2ccc(Br)cc2c(=O)n1/N=C/c1ccc(-c2ccccn2)cc1 [Compound 8d] next. condition met

Try Cc1ccc2nc(SCC(=O)Nc3c(C)cccc3C)n(-c3ccccc3)c(=O)c2c1 [Compound 15d] next. condition not met

Try Cc1nc2ccccc2c(=O)n1/N=C/N(C)C [Compound 12] next. condition not met

Try Cc1nc2ccccc2c(=O)n1/N=C/c1ccc(C#N)cc1 [Compound 8g] next. condition not met

* * *

The listing below reports pIC50 for compounds tested on Apis mellifera bee venom (AmPLA2) (Apis mellifera, UniProt P00630).
Please treat pIC50 as minus the base-10 logarithm of the molar concentration.

What value of pIC50 has been reported for the following compound? "Cc1nc2ccc(Br)cc2c(=O)n1/N=C/c1ccc(-c2ccccn2)cc1" 4.98

Try CC1(C)CC[C@]2(C(=O)O)CC[C@]3(C)C(=CC[C@@H]4[C@@]5(C)CC[C@H](O)C(C)(C)[C@@H]5CC[C@]43C)[C@@H]2C1 [Oleanolic acid, reference compound] next. 5.04

Try Cc1cccc(NC(=O)CSc2nc3ccccc3c(=O)n2-c2ccccc2)c1C [Compound 15e] next. 4.68

Try "COc1cc(-n2c(C)nc3ccccc3c2=O)cc(OC)c1OC" next. 4.77

* * *

- TARGET: Naja mossambica mossambica sPLA2 (NmPLA2)
- ASSAY_NAME: In vitro antiphospholipase activity
- Format: biochemical
- CONDITION_SET: 20 min preincubation, lecithin substrate, pH 7.6
OBSERVABLE: mean IC50 against NmPLA2 (µg/mL)
API: value field is a number in µg/mL; no unit string.

What value of mean IC50 against NmPLA2 has been reported for the following molecule? Cc1ccc2nc(SCc3ccc(Cl)cc3)n(-c3ccccc3)c(=O)c2c1 [Compound 15b] 14.85

Try CC1(C)CC[C@]2(C(=O)O)CC[C@]3(C)C(=CC[C@@H]4[C@@]5(C)CC[C@H](O)C(C)(C)[C@@H]5CC[C@]43C)[C@@H]2C1 [Oleanolic acid, reference compound] next. 4.90

Try "Cc1nc2ccccc2c(=O)n1NC(=O)OCC(C)C" next. 13.45

Try "Cc1nc2ccccc2c(=O)n1/N=C/c1ccc(C#N)cc1" next. 12.75
